Please respond with reported EC50 for every item in the list.
ASSAY TARGET: Cystic fibrosis transmembrane conductance regulator (Homo sapiens, UniProt P13569, F508DEL)
Sequence (P13569 as listed by the source): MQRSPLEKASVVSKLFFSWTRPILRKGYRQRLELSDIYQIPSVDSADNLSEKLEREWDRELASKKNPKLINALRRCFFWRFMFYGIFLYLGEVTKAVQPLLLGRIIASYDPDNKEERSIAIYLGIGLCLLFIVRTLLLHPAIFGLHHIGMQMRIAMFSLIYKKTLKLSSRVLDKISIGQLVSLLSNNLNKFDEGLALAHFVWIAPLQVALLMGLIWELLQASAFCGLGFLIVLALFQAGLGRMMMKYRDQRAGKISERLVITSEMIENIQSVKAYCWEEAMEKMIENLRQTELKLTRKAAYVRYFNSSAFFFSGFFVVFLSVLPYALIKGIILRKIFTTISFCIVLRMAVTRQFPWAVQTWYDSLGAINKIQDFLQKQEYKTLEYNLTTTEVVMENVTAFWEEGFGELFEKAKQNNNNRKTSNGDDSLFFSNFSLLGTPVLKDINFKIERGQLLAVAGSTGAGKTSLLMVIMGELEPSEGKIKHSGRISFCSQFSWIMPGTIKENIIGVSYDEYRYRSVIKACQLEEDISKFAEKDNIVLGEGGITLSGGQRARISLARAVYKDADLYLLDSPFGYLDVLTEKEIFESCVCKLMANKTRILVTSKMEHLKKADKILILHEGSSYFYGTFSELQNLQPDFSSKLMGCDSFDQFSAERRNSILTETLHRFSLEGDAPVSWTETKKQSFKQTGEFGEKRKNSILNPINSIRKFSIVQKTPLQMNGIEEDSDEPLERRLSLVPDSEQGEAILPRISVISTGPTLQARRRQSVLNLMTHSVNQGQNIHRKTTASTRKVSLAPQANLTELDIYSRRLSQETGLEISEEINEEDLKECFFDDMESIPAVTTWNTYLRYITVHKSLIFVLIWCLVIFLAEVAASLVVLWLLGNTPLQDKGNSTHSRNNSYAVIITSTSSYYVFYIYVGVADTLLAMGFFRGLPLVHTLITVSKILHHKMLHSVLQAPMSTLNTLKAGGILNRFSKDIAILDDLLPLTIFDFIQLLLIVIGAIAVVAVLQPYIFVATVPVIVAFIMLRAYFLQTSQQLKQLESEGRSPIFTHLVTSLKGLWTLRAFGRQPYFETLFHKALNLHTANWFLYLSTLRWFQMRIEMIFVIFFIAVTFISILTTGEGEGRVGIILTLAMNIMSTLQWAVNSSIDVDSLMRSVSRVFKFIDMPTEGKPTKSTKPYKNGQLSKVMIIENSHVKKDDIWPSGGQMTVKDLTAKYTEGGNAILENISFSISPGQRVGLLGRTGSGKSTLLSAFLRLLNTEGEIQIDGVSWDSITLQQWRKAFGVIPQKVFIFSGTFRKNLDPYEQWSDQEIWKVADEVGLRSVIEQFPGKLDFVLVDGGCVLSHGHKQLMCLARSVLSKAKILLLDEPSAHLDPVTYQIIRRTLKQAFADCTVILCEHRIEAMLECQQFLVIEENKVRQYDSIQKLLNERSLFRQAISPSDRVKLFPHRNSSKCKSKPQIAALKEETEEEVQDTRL
EXPERIMENTAL PROTOCOL: Potentiator activity at CFTR F508del mutant (unknown origin) expressed in CFBE41o cells assessed as increase in forskolin induced transepithelial short circuit current by Ussing chamber assay

Measured EC50, NC(=O)c1ccc(-n2cnc3c(N)nc(Cl)nc32)cc1 : 1.51 µM

Measured EC50, CC(C)(C)c1cc(C(C)(C)C)c(NC(=O)c2c[nH]c3ccccc3c2=O)cc1O : 0.0117 µM
